- procedure.details: Inhibition of full length recombinant Plasmodium falciparum CDPK1 using MTIP as substrate assessed as amount of ATP remaining after 1 hr by luminescence assay
We begin with a simple list: items and their reported IC50.
Give the value, in units of nM, as a plain number.

Take a look at these entries with their results.
>  <chemical.structure>
CN1CCC(Nc2ccc3ncc(-c4cnn(-c5cccc(F)c5)c4)n3n2)CC1

>  <endpoint.result>
20

$$$$
>  <chemical.structure>
CN1CCC(Nc2ccc3ncc(-c4cnn(C5CCCC5)c4)n3n2)CC1

>  <endpoint.result>
1980

$$$$
>  <chemical.structure>
CN1CCC(Nc2ccc3ncc(-c4cnn(-c5ccc(F)cc5)c4)n3n2)CC1

>  <endpoint.result>
45

$$$$
>  <chemical.structure>
CN1CCC(Nc2ccc3ncc(-c4cnn(-c5ccccc5)c4)n3n2)CC1

>  <endpoint.result>
71

$$$$

# evaluate next
In: Request the reported IC50 associated with CN1CCC(Nc2ccc3ncc(-c4cnn(Cc5ccccc5F)c4)n3n2)CC1
Out: 331
